biological target: SARS-CoV-2 spike protein receptor binding domain (isolated RBD) (SARS-CoV-2, UniProt P0DTC2 319-541)
pKd: −log10 of the molar value.
Quantity: pKd

{"Binder": "IMPI-024 (antibody, V domains shown) VH: EVQLVQSGAEVKKPGESLKISCKGSGYSFTSYWIGWVRQMPGKGLEWMGIIYPGDSDTRYSPSFQGQVTISADKSISTAYLQWSSLKASDTAMYYCVRSYNWNYFDYWGQGTLVTVSS VL: AIQLTQSPSSLSASVGDRVTITCRASQGISSGLAWYQQKAGKAPKLLIYDVSSLESGVPSRFSGSGSGTDFTLTISSLQPEDFATYYCQQFLSYPWTFGQGTKVEIK", "Recorded Number": 9.20}
